Test system: SK-MEL-5 melanoma
METHOD SUMMARY: NCI tumour cell line growth inhibition, 48 h
PROPERTY: TGI (µM)
Numbers only, in µM.

CPD SMILES	RECORDED NUMBER
CN(C)CCCCNc1ccc(NCCCCN(C)C)c2c1C(=O)c1c(O)ccc(O)c1C2=O	26.3
COc1ncc(-c2ccc3nccc(C#CCCCCC(=O)NO)c3c2)cc1NS(=O)(=O)c1ccc(F)cc1F	1.34
O=C(CN1CCN(C(=O)c2ccco2)CC1)Nc1ccc(Cl)cc1C(=O)c1ccccc1Cl	18.6
O[C@@]12Cc3c([nH]c4ccccc34)[C@@H]3Oc4c(-c5ccccc5)ccc5c4[C@@]31CCN(CC1CC1)[C@@H]2C5	3.25
Cc1ccc(S(=O)(=O)Nn2c(S)c(C#N)c(-c3ccc(Cl)cc3)c(C#N)c2=O)cc1	42.2

Hey, quick one: what's TGI for each of these?
1. O=C1c2ccc3c4c(ccc(c24)C(=O)N1CCNCc1ccccc1)C(=O)N(CCNCc1ccccc1)C3=O
2. CC(=O)ON=C1C=CC(=C(C#N)c2ccccc2)C=C1

[reply]
1. 2.68
2. 17.7

[ask] Return TGI for the following compound: CC1=C(C(=O)Nc2ccc(C)cc2)C(c2cccc([N+](=O)[O-])c2)C(C(=O)Nc2ccc(C)cc2)=C(C)N1
[reply] 44.3

* * *

Test system: SF-539 CNS
METHOD SUMMARY: NCI tumour cell line growth inhibition, 48 h
PROPERTY: TGI (µM)
Give bare numbers, in µM.

See these solved cases before continuing.
COc1cc2c(cc1OCCCN1CCN(C(=S)SCCC(C#N)(c3ccccc3)c3ccccc3)CC1)N=C[C@@H]1CCCN1C2=O 3.37
Nc1ncnc2c1ccn2-c1cccc(NC(=O)c2ccc(N3CCOCC3)c(C(F)(F)F)c2)c1 15.4
CCOc1cc2c(cc1O)C(=O)C[C@@H]1[C@@H]2CC[C@]2(C)[C@@H](O)CC[C@@H]12 0.487

// switching to the query compound
[ask] Return TGI for the following compound: C#CCNC(=O)CC[C@@H](C)[C@H]1CC[C@H]2[C@@H]3CC[C@@H]4CC(=O)CC[C@]4(C)[C@H]3CC[C@]12C
[reply] 30.4

* * *

Tested on: CAKI-1 renal
METHOD SUMMARY: NCI tumour cell line growth inhibition, 48 h; in the data active means GI50 below about 0.43 µM; inactive means the rest
Output constraint: value belongs to active, inactive

MOLECULE	LABEL
O=C1OCC2=C1C(c1cccc(Cl)c1)c1cc3c(cc1N2CCO)CCC3 (stereo unspecified)	active

[ask] Any idea what this test logged for Cc1c(C(=O)c2ccccc2)[n+](=O)c2cc(F)c(F)cc2n1[O-] ?
[reply] inactive

[ask] Any idea what this test logged for O=C(N/N=C/c1ccncc1)c1ccc(F)cc1 ?
[reply] inactive

[ask] Any idea what this test logged for Cc1cc(-c2cc(OC(=O)c3ccccc3)ccc2Cl)cc2nnc(Nc3ccc(OCCN4CCCC4)cc3)nc12 ?
[reply] inactive

[ask] Any idea what this test logged for CC(=O)ON=C1C=CC(=C(C#N)c2ccccc2)C=C1 ?
[reply] active

[ask] Any idea what this test logged for CCN(CC)CC(O)c1cc(-c2ccc(Cl)cc2)nc2c(C)c(Cl)ccc12 (stereo unspecified) ?
[reply] inactive

[ask] Any idea what this test logged for CN(C)CCCCNc1ccc(NCCCCN(C)C)c2c1C(=O)c1c(O)ccc(O)c1C2=O ?
[reply] inactive

[ask] Any idea what this test logged for CC(=O)N[C@@H](Cc1ccc(OP(=O)(O)O)cc1)C(=O)N[C@H]1CCC(=O)N2CCC[C@@H](C(=O)NC3CCc4ccccc43)N2C1=O (stereo partly specified) ?
[reply] inactive

[ask] Any idea what this test logged for CCCCCCCCCCCCCCCCCC[S+](C)CC (stereo unspecified) ?
[reply] active

[ask] Any idea what this test logged for CCCCCCCCCC[C@H](O)[C@H]1CC[C@@H]([C@@H](O)CC[C@H](O)[C@@H]2CCC(CCCCCCC[C@@H](O)CC3=C[C@H](C)OC3=O)O2)O1 (stereo partly specified) ?
[reply] inactive

[ask] Any idea what this test logged for Nc1ncnc2c1ccn2-c1cccc(NC(=O)c2ccc(N3CCOCC3)c(C(F)(F)F)c2)c1 ?
[reply] inactive

* * *

Test system: DU-145 prostate
METHOD SUMMARY: NCI tumour cell line growth inhibition, 48 h
Can you tell me TGI for the items I'm about to list?

Hey, quick one: what's TGI for each of these?
1. O=C(CC(C(=O)c1cccs1)c1ccc2c(c1)OCO2)c1ccccc1 (stereo not given)
2. O=c1/c(=C\c2ccc(Br)cc2)sc2n1C(c1ccc(Br)cc1)C1=C(N=2)c2ccc3ccccc3c2OCC1 (stereo not given)
3. O=C(CCN1CCCN(c2cnc3ccccc3n2)CC1)c1csc2ccccc12
4. COC(=O)c1cccc(NC(=O)c2ccc(NC3=C(Cl)C(=O)N(Cc4ccccc4)C3=O)cc2)c1
5. COC(=O)[C@H](Cc1ccccc1)NC(=O)N(CCNC(=O)OC(C)(C)C)c1ccccc1

[reply]
> 100 µM
> 100 µM
32.4 µM
25.2 µM
> 100 µM

Hey, quick one: what's TGI for each of these?
1. COC(=O)C1Cc2cc3c(cc2C1)CCC3
2. CN1CCc2c(sc3ncn(Nc4ccc(F)cc4)c(=N)c23)C1
3. COc1ccc(CNc2nc3cc(C(F)(F)F)ccc3nc2C(=O)O)cc1

[reply]
["> 100 µM", "> 100 µM", "> 100 µM"]

Hey, quick one: what's TGI for each of these?
1. CCOc1ccc2c(c1)C(=O)c1c-2n(CCCN=[N+]=[N-])c(=O)c2cc([N+](=O)[O-])ccc12
2. COC(=O)c1c2c(c(C)[n+]([O-])c1C)C(=O)C(NCc1ccc(O)cc1)=CC2=O
3. O=C1N[C@H](C(=O)O)[C@@H](c2ccc(OCc3ccccc3)cc2)O1
4. OC(Cc1cc(CC(O)(C(F)(F)F)C(F)(F)F)nc(CC(O)(C(F)(F)F)C(F)(F)F)c1)(C(F)(F)F)C(F)(F)F
5. O=C1OCC2=C1C(c1cccc(Cl)c1)c1cc3c(cc1N2CCO)CCC3 (stereo not given)

[reply]
1. 38.6 µM
2. 3.19 µM
3. > 100 µM
4. 7.09 µM
5. 0.425 µM

Hey, quick one: what's TGI for each of these?
1. S=C(S)NCCN1CCNCC1
2. C=CC(=O)N1CCC[C@@H](n2nc(-c3ccc(Oc4ccccc4)cc3)c3c(N)ncnc32)C1
3. NC(=O)c1csc(-c2ccc(CO)o2)n1

[reply]
1. > 100 µM
2. > 10 µM
3. > 100 µM

* * *

Test system: OVCAR-3 ovarian
METHOD SUMMARY: NCI tumour cell line growth inhibition, 48 h
PROPERTY: log10 of TGI (log10 of the value in µM)
Response schema: value (number) is log10 of TGI in units of µM.

CPD SMILES	PROPERTY	RECORDED NUMBER
O=C(O)c1ccc(/C=N/N=C2c3ccccc3-c3ccccc32)cc1	log10 of TGI	1.83
COc1ccc(/C=C/C(=O)CCN2CCN(CCC(=O)/C=C/c3ccc(OC)cc3)CC2)cc1	log10 of TGI	1.46
COc1cc(OC)c(/C=N\Nc2nc3ccccc3c(=O)n2-c2ccccc2)c(OC)c1	log10 of TGI	1.71
O[C@@]12Cc3c([nH]c4ccccc34)[C@@H]3Oc4c(-c5ccccc5)ccc5c4[C@@]31CCN(CC1CC1)[C@@H]2C5	log10 of TGI	0.48

// switching to the query molecule
[ask] Return log10 of TGI for the following molecule: COc1cc(C(=O)NN=C2c3ccccc3-c3ccccc32)cc(OC)c1OC
[reply] 1.03

* * *

Test system: SF-539 CNS
METHOD SUMMARY: NCI tumour cell line growth inhibition, 48 h
Can you tell me TGI for the items I'm about to list?

See these solved cases before continuing.
MOLECULE	TEST TARGET	RESULT
CC(=O)Nc1cc2c3c(cccc3c1)-c1ccccc1-2	SF-539 CNS	> 100 µM
COc1cc(C)[nH]c(=O)c1CNC(=O)c1c(C)n([C@H](C)C2CCN(CC(F)(F)F)CC2)c2ccccc12	SF-539 CNS	> 100 µM
COc1cc(C(=O)NN=C2c3ccccc3-c3ccccc32)cc(OC)c1OC	SF-539 CNS	5.32 µM

Hey, quick one: what's TGI for each of these?
1. CC1OC(CO)(n2cnc3c(N)ncnc32)C(O)C1O (stereo unspecified)
2. O=C(Cc1nc2ccccc2o1)C(=O)Nc1ccc(Cl)cc1Cl
3. Cn1c(=S)[nH]c(N)c(Cc2ccccc2)c1=O
4. NC(=O)c1csc(-c2ccc(CO)o2)n1
5. CN1CCc2c(sc3ncn(Nc4ccc(F)cc4)c(=N)c23)C1
6. CCN(CC)CCSc1c(C(C)=O)c(=O)n(-c2ccccc2)c(=S)n1-c1ccccc1
7. CN1CCN(c2n[nH]c(=O)c3c2nnn3C2CCCCC2)CC1
8. COc1c(B(O)O)cccc1-c1nc2c(F)cc3n[nH]c(C)c3c2c2c1CCCC2

[reply]
1: > 100 µM; 2: > 100 µM; 3: > 100 µM; 4: > 100 µM; 5: > 100 µM; 6: 6.01 µM; 7: > 100 µM; 8: 2.97 µM
